Ref: paper PMC12102759

B1: ATXN2 peptide 911-926 (Ataxin-2), 16-mer library wild type / PABPC1 PABC (PABPC1 PABC domain, residues 544-623) (parent)
chain 1: KSTLNPNAKEFNPRSF
chain 2: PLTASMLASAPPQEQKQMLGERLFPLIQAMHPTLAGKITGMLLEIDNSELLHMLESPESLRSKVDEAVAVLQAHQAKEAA

# Variants of: B1
# Test Description: proteomic peptide phage display deep mutational scan (ProP-PD DMS): M13 P8 16-mer library selected against immobilised GST-tagged bait for four days (rounds), NGS of the eluted pools per day and pseudo-replica
# Test Settings: with PABPC1 PABC (PABPC1 PABC domain, residues 544-623); bait immobilised on MaxiSorp plates (10 µg), library pre-cleared on GST, 2 h binding at 4 °C, five washes; one round per day, days 1-4; value from days 2 and 3; scale: average fractional NGS count over selection days 2 and 3
# screen value per entry

- Construct Sequence: "chain 1 KSTLNANAKEFNPRSF [chain 1 P6A]"
  screen value: 0
- Construct Sequence: "chain 1 KSTLNPNAKEFPPRSF [chain 1 N12P]"
  screen value: 0
- Construct Sequence: "chain 1 KSTLNPNAKEFNPQSF [chain 1 R14Q]"
  screen value: 0.00156
- Construct Sequence: "chain 1 KSILNPNAKEFNPRSF [chain 1 T3I]"
  screen value: 0.00112
- Construct Sequence: "chain 1 KSTLNPQAKEFNPRSF [chain 1 N7Q]"
  screen value: 0.000449
- Construct Sequence: "chain 1 KSTLNPNAKEFNPRLF [chain 1 S15L]"
  screen value: 0.00242
- Construct Sequence: "chain 1 KSTLSPNAKEFNPRSF [chain 1 N5S]"
  screen value: "2.4e-05"
- Construct Sequence: "chain 1 KSTLNPNAKEFDPRSF [chain 1 N12D]"
  screen value: 0.00012
- Construct Sequence: "chain 1 KSTLNPNAKDFNPRSF [chain 1 E10D]"
  screen value: 0
- Construct Sequence: "chain 1 KSTLNPNAKEFNGRSF [chain 1 P13G]"
  screen value: 0.00243
- Construct Sequence: "chain 1 KSHLNPNAKEFNPRSF [chain 1 T3H]"
  screen value: "8.48e-05"
- Construct Sequence: "chain 1 KSTLNYNAKEFNPRSF [chain 1 P6Y]"
  screen value: 0
- Construct Sequence: "chain 1 KSTLNPNAKEFNPRDF [chain 1 S15D]"
  screen value: 0
- Construct Sequence: "chain 1 KSTLNPNAKEFNPRSL [chain 1 F16L]"
  screen value: 0.00151
- Construct Sequence: "chain 1 KSTLNPNAKEFNPRSV [chain 1 F16V]"
  screen value: 0.000892
- Construct Sequence: "chain 1 KDTLNPNAKEFNPRSF [chain 1 S2D]"
  screen value: 0.000114
- Construct Sequence: "chain 1 KSTLNPNAKEFTPRSF [chain 1 N12T]"
  screen value: 0.000331
- Construct Sequence: "chain 1 KSTLNPNAKEFNFRSF [chain 1 P13F]"
  screen value: 0.00012
- Construct Sequence: "chain 1 KSTLNPVAKEFNPRSF [chain 1 N7V]"
  screen value: 0.000181
- Construct Sequence: "chain 1 KSTLNPNAKEFNWRSF [chain 1 P13W]"
  screen value: 0.000637
- Construct Sequence: "chain 1 KTTLNPNAKEFNPRSF [chain 1 S2T]"
  screen value: 0.00018
